The origin of these recorded values is paper PMC10397247.

# measured-on: T1, 4H3130-AA
# T1 chain: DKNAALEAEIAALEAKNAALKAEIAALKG
# protocol-description: two-hybrid library CCmax;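 further: natural log of median RNA to DNA barcode read ratio; higher means stronger binding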
# condition-info: mean of both orientations
measured-parameter: interaction score
Answers are plain numbers.

Input: For DKIAALEAKNAALEAEIAALEAKIAALKG [4H2438-AA] , write its interaction score.
Output: -0.561

Input: For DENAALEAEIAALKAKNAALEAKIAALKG [4H1142-AA] , write its interaction score.
Output: 0.0677

Input: For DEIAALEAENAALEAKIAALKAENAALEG [4H171-AA] , write its interaction score.
Output: 0.164

// switching to the query binder
Input: For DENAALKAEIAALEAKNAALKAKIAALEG [4H1597-AA] , write its interaction score.
Output: -1.55
